Molecular target: NPY2 receptors (Homo sapiens, UniProt P49146)
Construct: Cell Membranes from KAN-TS cells having NPY2 receptors; endogenous in cells; host or cells: KAN-TS cells (membranes)
Sequence (P49146 whole entry): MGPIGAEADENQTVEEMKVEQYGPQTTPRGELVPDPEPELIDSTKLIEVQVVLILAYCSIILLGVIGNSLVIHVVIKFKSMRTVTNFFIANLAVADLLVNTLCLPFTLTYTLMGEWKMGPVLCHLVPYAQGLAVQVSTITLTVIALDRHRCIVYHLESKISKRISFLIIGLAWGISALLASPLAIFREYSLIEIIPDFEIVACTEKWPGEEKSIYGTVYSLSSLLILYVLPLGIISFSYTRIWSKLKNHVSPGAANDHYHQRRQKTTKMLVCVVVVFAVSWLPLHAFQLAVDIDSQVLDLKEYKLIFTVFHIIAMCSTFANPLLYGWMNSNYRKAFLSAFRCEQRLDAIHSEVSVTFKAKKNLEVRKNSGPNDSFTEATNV
Experiment: Neuropeptide Y receptor binding assay (125I-PYY, KAN-TS cell membranes)
Settings: 10 μM compound; read-out: NPY-2@10, % Inh
Description: Neuropeptide Y Receptor Binding Assay Load 96-well RIA racks with RIA vials (Sarstedt, cat. #73.1055) Prepare membranes—use 2×15 cm confluent plates/96-well assay plate Add 14 mls Homogenization buffer/cell pellet Homogenize at high speed for 15 seconds Transfer to 15 ml conical tube and spin 5′ at 4° C. at setting 3 in RT6000 centrifuge Transfer supernatant to 30 ml Corex tube Balance and spin 25′ at 15,000 rpm at 4° C. Resuspend pellet in 10 mls Binding buffer Homogenize at high speed for 15 sec. […]
Where a name gives a salt, the structure may show the parent alone.
METRIC_NAME: inhibition at 10 µM (%)

A selection of reference data follows.
| COMPOUND | inhibition at 10 µM (%) |
| --- | --- |
| NCCn1c(=O)n(C2CCN(C(=S)NC(c3ccccc3)c3ccccc3)CC2)c2ccccc21 [Compound 63, Hydrochloride] | 94 |
| O=c1[nH]c2ccccc2n1C1CCN(C(=S)NCCc2ccc([N+](=O)[O-])cc2)CC1 | 17 |
| O=c1[nH]c2ccccc2n1C1CCN(C(=S)NC(Cc2ccccc2)c2ccccc2)CC1 (centres unmarked) | 26 |

[a] O=c1[nH]c2ccccc2n1C1CCN(C(=S)NCc2ccccc2)CC1
[b] NC(=O)C(Cc1ccccc1)NC(=S)N1CCC(n2c(=O)[nH]c3ccccc32)CC1 (centres unmarked)
From the recorded data, which exceeds the other in inhibition at 10 µM: a or b ? Return value: the label identifying the chosen record.
a

Values compiled from patent US6653478B2.
